Origin of measurements: PubChem BioAssay (NCI)

# System: DU-145 prostate
# ASSAY_COMMENT: NCI tumour cell line growth inhibition, 48 h
Where a SMILES comes first, the peptide text is derived from it. The star is where a group is joined. Boc = CC(C)(C)OC(=O)*
Can you tell me TGI for the items I'm about to list?

Retrieve TGI on DU-145 prostate; query CC1(O)CC(C(F)(F)F)(C(F)(F)F)OC1=O (configuration not stated)
> 10 µM

Return reported TGI for target or system DU-145 prostate, item "CN(CCC#N)c1ccc(/C=C2\SC(=S)NC2=O)cc1" .
> 100 µM

Report its TGI with DU-145 prostate as the test system: O=c1nc(N2CCN(c3ccccc3)CC2)ccn1C1OC(CO)C(O)C1O (configuration not stated)
> 100 µM

Provide measured TGI on DU-145 prostate for "CC(C)=CCOC(=O)C(C)=[N+]=[N-]" please.
> 100 µM

Report TGI under test system DU-145 prostate for "COC(=O)CCCCN=Cc1c(O)c(O)c(C(C)C)c2cc(C)c(-c3c(C)cc4c(C(C)C)c(O)c(O)c(C=NCCCCC(=O)OC)c4c3O)c(O)c12" .
> 32.5 µM

Provide TGI, system DU-145 prostate, entry "Cc1c(-c2nc3ccccc3[nH]2)c(=O)n(-c2ccccc2)n1C"
> 100 µM

# return TGI of "O=C1CCC[C@@H]2NC[C@@H](c3ccc4c(c3)OCO4)[C@H]12" (system: DU-145 prostate)
> 25 µM

Determine reported TGI for "CC1=C2C(=O)NN=C2CCN1c1ccc(Br)cc1" ; test system: DU-145 prostate.
> 100 µM

Give reported TGI for "O=c1oc2ccc(F)cc2c(=O)n1-c1ccc(F)cc1F" (DU-145 prostate)
> 100 µM

Write down measured TGI (DU-145 prostate) for this compound. COC(=O)CNC(=O)C(Cc1ccccc1)NC(=O)C(CCSC)NC(=O)C(Cc1ccc(O)cc1)NC(=O)OC(C)(C)C (configuration not stated) (Boc-YMFG-OMe; configuration not given here)
> 100 µM

// fetch TGI for CCCCC(=O)OCC1OC(n2cnc3c(=S)nc[nH]c32)C(OC(=O)CCCC)C1OC(=O)CCCC (configuration not stated) ; system: DU-145 prostate
> 100 µM

Provide DU-145 prostate TGI reading for CC1=C(C(=O)Nc2ccc3[nH]ncc3c2)C(c2ccc3ccccc3c2)CC(=O)N1 (configuration not stated) .
> 25 µM

---

Provide the reported TGI of each item.
# Tested on: OVCAR-8 ovarian
# ASSAY_COMMENT: NCI tumour cell line growth inhibition, 48 h

# return recorded TGI for input COC(=O)C(/C(=N/NC(N)=O)C(=O)Nc1ccc(C)cc1)c1nc2ccc([N+](=O)[O-])cc2[nH]c1=O (stereo not drawn)
> 100 µM

Read off the recorded TGI for "COCCOCOc1ccc(OCc2ccccc2)cc1"
> 100 µM

Hello, please tell me recorded TGI for this one: "COc1cc(-c2cc(=O)c3cc4c(cc3[nH]2)OCO4)cc(OC)c1O"
> 10 µM

Answer with the recorded TGI for the molecule listed here: O=C(CI)NC1Oc2ccccc2-c2oc(=O)c(-c3ccccc3)cc21 (stereo not drawn)
4.47 µM

Assign TGI to the following record: "COc1ccccc1C1C(C(=O)Nc2ccccc2)=C(C)NC(C)=C1C(=O)Nc1ccccc1"
> 100 µM

Query TGI for "COc1cccc2c(N)c3cccc(C(=O)NCCN(C)C)c3nc12"
0.594 µM

Provide measured TGI value, entry: COc1ccc(C(C#N)NNC(=O)c2ccccc2O)cc1OC (stereo not drawn)
> 100 µM

Note TGI for the molecule shown: "C#CCCCCC#Cc1ccccc1C(=O)OC"
31.5 µM

# return recorded TGI for entry C=C(C)C12CC(COC(=O)c3ccccc3)C34OC5(OC1C3C1OC1(CO)C(O)C1(O)C(OC(=O)c3ccccc3)C(C)C(C(C)CCCCCCC5O)C14)O2 (stereo not drawn)
> 100 µM

Given the molecule "COc1ccc(-n2c(=O)c3[nH]cnc3n(-c3ccc(OC)cc3)c2=S)cc1" , write its reported TGI.
> 100 µM

Provide measured TGI value, entry: "COc1cnc2cc(C(=O)O)c3c([N+](=O)[O-])cccc3c2c1"
> 100 µM

State its TGI: CN(C(=O)C12C3C4C1C1C2C3C41C(=O)C(C)(C)C)C(C)(C)C (stereo not drawn)
> 100 µM

Dear colleague, please send me the reported TGI for "NC(C(F)(F)F)(C(F)(F)F)P(=O)(Cc1ccccc1)Cc1ccccc1" when you can.
> 100 µM
